All values here come from ChEMBL document CHEMBL1144995.

molecular target: Carbonic anhydrase 9 (Homo sapiens)
Please assign Not met whenever Ki is at or above 50 nM, and Met whenever it is below.

Consider the following illustrative entries.
Nc1c(I)cc(S(=O)(=O)Nc2nnc(S(N)(=O)=O)s2)cc1I
Met
Nc1c(Cl)cc(S(N)(=O)=O)cc1Br
Met
Nc1c(Br)cc(S(N)(=O)=O)cc1Br
Not met

Query string: Could you please tell me whether Ki recorded for `Nc1c(Br)cc(S(=O)(=O)Nc2nnc(S(N)(=O)=O)s2)cc1Br` is less than 50 nM?
Result string: Met

Query string: Could you please tell me whether Ki recorded for `Nc1ccc(S(=O)(=O)Nc2nnc(S(N)(=O)=O)s2)cc1Br` is less than 50 nM?
Result string: Met

Query string: Could you please tell me whether Ki recorded for `Nc1ccc(S(=O)(=O)Nc2nnc(S(N)(=O)=O)s2)cc1F` is less than 50 nM?
Result string: Met

* * *

// values below are Ki; system is Carbonic anhydrase 1 (Homo sapiens)
Sequence (P00915 whole entry): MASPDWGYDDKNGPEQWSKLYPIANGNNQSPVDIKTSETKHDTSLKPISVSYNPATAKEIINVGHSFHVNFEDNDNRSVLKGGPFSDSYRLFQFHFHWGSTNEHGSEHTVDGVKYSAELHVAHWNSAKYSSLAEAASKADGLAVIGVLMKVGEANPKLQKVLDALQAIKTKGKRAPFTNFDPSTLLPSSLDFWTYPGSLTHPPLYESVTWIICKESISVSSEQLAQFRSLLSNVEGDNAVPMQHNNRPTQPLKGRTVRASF
Respond numerically; units are nM and should not be typed.

Notebook: `Nc1c(Cl)cc(S(=O)(=O)Nc2nnc(S(N)(=O)=O)s2)cc1I` , Ki read as 1.6

Notebook: `CC(=O)Nc1ccc(S(=O)(=O)Nc2nnc(S(N)(=O)=O)s2)cc1Cl` , Ki read as 5.4

Notebook: `Nc1c(F)cc(S(=O)(=O)Nc2nnc(S(N)(=O)=O)s2)cc1Br` , Ki read as 1

Notebook: `Nc1c(I)cc(S(N)(=O)=O)cc1I` , Ki read as 14000

Notebook: `Nc1ccc(S(=O)(=O)Nc2nnc(S(N)(=O)=O)s2)cc1F` , Ki read as 3.1

* * *

// values below are pKi; system is Carbonic anhydrase 2 (Homo sapiens)
Schema: pKi number; meaning minus log10 of the concentration expressed in molar units.

Nc1c(Cl)cc(S(=O)(=O)Nc2nnc(S(N)(=O)=O)s2)cc1Cl
9.30
Nc1c(Br)cc(S(=O)(=O)Nc2nnc(S(N)(=O)=O)s2)cc1I
9.22
Nc1ccc(S(=O)(=O)Nc2nnc(S(N)(=O)=O)s2)cc1F
9.10
CC(=O)Nc1ccc(S(N)(=O)=O)cc1Cl
7.13
Nc1c(F)cc(S(N)(=O)=O)cc1Br
7.48
Nc1ccc(S(=O)(=O)Nc2nnc(S(N)(=O)=O)s2)cc1Br
9.15

`Nc1c(Cl)cc(S(N)(=O)=O)cc1I` tested on Carbonic anhydrase 2 (Homo sapiens) gave pKi: 7.21

`Nc1c(Br)cc(S(N)(=O)=O)cc1I` tested on Carbonic anhydrase 2 (Homo sapiens) gave pKi: 6.97

`Nc1c(F)cc(S(=O)(=O)Nc2nnc(S(N)(=O)=O)s2)cc1Br` tested on Carbonic anhydrase 2 (Homo sapiens) gave pKi: 9.70

* * *

Molecular target: Carbonic anhydrase 4 (Bos taurus, UniProt Q95323)
Sequence (Q95323 whole entry): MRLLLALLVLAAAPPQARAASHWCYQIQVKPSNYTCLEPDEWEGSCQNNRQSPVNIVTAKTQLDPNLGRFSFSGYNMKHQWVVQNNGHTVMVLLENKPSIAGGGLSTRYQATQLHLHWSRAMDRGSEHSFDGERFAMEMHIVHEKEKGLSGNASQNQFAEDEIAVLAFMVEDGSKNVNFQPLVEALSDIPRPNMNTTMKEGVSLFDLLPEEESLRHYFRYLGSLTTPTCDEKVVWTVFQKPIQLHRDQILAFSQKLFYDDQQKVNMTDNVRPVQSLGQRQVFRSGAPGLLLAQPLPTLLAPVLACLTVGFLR
Each item that follows carries a reported Ki.
Entry format: amount then unit.

Example entries and their recorded answers appear below.
Nc1c(Br)cc(S(N)(=O)=O)cc1I
250 nM
Nc1c(I)cc(S(N)(=O)=O)cc1I
280 nM
CC(=O)Nc1ccc(S(N)(=O)=O)cc1Br
58 nM
Nc1c(F)cc(S(=O)(=O)Nc2nnc(S(N)(=O)=O)s2)cc1Cl
2 nM
Nc1c(F)cc(S(=O)(=O)Nc2nnc(S(N)(=O)=O)s2)cc1Br
1.9 nM

Notebook: `Nc1c(Cl)cc(S(N)(=O)=O)cc1Cl` , Ki read as 165 nM
